I'd be grateful if you could share measured damage to plant, BEAVA for these entries.
- Test system: plants
- assay_details: Test D pre-emergence, other plants of Tables D1 and D3
- Format: in vivo
- test_parameters: pre-emergence, rate 500, 20 DAA, 100=total damage, 0=no damage
Answers are plain numbers.

Previously resolved entries follow.
# compound, measured_on, measured_metric, result_number
data = [
    ("CCn1nc([C@H]2CN(C)C(=O)[C@@H]2C(=O)Nc2cccc(F)c2F)c2c(F)cccc21 [Compound 7]", "plants", "damage to plant, BEAVA", 0),
    ("CN1CC(c2cc(C(F)(F)F)n(C)n2)C(C(=O)Nc2cccc(F)c2C(F)(F)F)C1=O (racemic) [Compound 19]", "plants", "damage to plant, BEAVA", 0),
    ("CN1C[C@H](c2nn(C)c3c(F)cccc23)[C@@H](C(=O)Nc2cccc(F)c2F)C1=O [Compound 2]", "plants", "damage to plant, BEAVA", 10),
]

Next up:
Given the compound CN1CC(c2cc(C(F)(F)F)n(C)n2)C(C(=O)Nc2ccccc2F)C1=O (racemic) [Compound 9] , write its reported damage to plant, BEAVA.
0

----------
I'd appreciate it if you could supply damage to plant (100=total damage to plant; 0=no damage to plant), ECHCG values for the items below.
- System: plants
- assay_details: Test D post-emergence, other plants of Tables D2 and D4
- Format: in vivo
- test_parameters: post-emergence, ECHCG, rate 250, evaluated after 15 d

# compound, result
data = [
    ("CN1CC(c2cc(C(F)(F)F)n(C)n2)C(C(=O)Nc2ccc(F)nc2F)C1=O (racemic) [Compound 22]", 40),
    ("CCn1nc([C@@H]2CN(C)C(=O)[C@H]2C(=O)Nc2cccc(F)c2F)c2cccc(F)c21 [Compound 14]", 80),
    ("CN1CC(c2cc(C(F)(F)F)n(C)n2)C(C(=O)Nc2cccc(F)n2)C1=O (racemic) [Compound 24]", 0),
]

Hello, please tell me recorded damage to plant (100=total damage to plant; 0=no damage to plant), ECHCG for this one: CN1CC(c2cc(C(F)(F)F)n(C)n2)C(C(=O)Nc2ccc(F)c(F)c2F)C1=O (racemic) [Compound 17]
80

----------
- Tested on: plants
- assay_details: Test D post-emergence, other plants of Tables D2 and D4
- Format: in vivo
- test_parameters: HORVW; "Cereals" Postemergent; Rates 250; evaluated after 15 d
measured_metric: HORVW damage rating (100=total damage to plant; 0=no damage to plant)
Numbers only.

For orientation, consider the following solved cases.
# compound, result_number
data = [
    ("CN1CC(c2cc(C(F)(F)F)n(C)n2)C(C(=O)Nc2ccc(F)nc2F)C1=O (racemic) [Compound 22]", 10),
    ("CN1CC(c2cc(C(F)(F)F)n(C)n2)C(C(=O)Nc2cccc(F)n2)C1=O (racemic) [Compound 24]", 0),
    ("CN1CC(c2cc(C(F)(F)F)n(C)n2)C(C(=O)Nc2ccc(F)cc2F)C1=O (racemic) [Compound 6]", 10),
]

Here is the next item to consider.
Fill in reported HORVW damage rating (100=total damage to plant; 0=no damage to plant) for this entry: CN1CC(c2cc(C(F)(F)F)n(C)n2)C(C(=O)Nc2cccc(F)c2F)C1=O (racemic) [Compound 3]
0

----------
For each of the molecules below, state its damage to plant (100=total damage to plant; 0=no damage to plant), BIDPI.
- Tested on: plants
- assay_details: Test D post-emergence, other plants of Tables D2 and D4
- Assay type: in vivo
- test_parameters: post-emergence, BIDPI, rate 500, evaluated after 15 d
Give bare numbers.

Guide cases for damage to plant (100=total damage to plant; 0=no damage to plant), BIDPI, answers given:
# molecule, result_number
records = [
    ("CN1CC(c2cc(C(F)(F)F)n(C)n2)C(C(=O)Nc2cccc(F)c2F)C1=O (racemic) [Compound 3]", 0),
    ("CN1CC(c2cc(C(F)(F)F)n(C)n2)C(C(=O)Nc2cccc(F)n2)C1=O (racemic) [Compound 24]", 0),
    ("CN1CC(c2cc(C(F)(F)F)n(C)n2)C(C(=O)Nc2ccc(F)nc2F)C1=O (racemic) [Compound 22]", 20),
]

Each molecule below has a recorded value; state its damage to plant (100=total damage to plant; 0=no damage to plant), BIDPI.
1. CCn1nc([C@@H]2CN(C)C(=O)[C@H]2C(=O)Nc2cccc(F)c2F)c2cccc(F)c21 [Compound 14]
2. CN1CC(c2cc(C(F)(F)F)n(C)n2)C(C(=O)Nc2cccc(F)c2C(F)(F)F)C1=O (racemic) [Compound 19]

1. 30
2. 10

----------
- Tested on: ivy-leaved morning glory (Ipomoea hederacea, IPOHE)
- assay_details: Test A post-emergence, ivy-leaved morning glory
- Format: in vivo
- test_parameters: Post-Emergence at 250 g/ha; after 13 d
Please go through the items and note down their damage to plant (100=total damage; 0=no damage) IPOHE.
One number for each entry.

Some solved cases for reference:
# compound, result_number
rows = [
    ("CN1CC(c2cc(C(F)(F)F)n(C)n2)C(C(=O)Nc2cccc(F)c2C(F)(F)F)C1=O (racemic) [Compound 19]", 0),
    ("CCn1nc([C@H]2CN(C)C(=O)[C@@H]2C(=O)Nc2cccc(F)c2F)c2c(F)cccc21 [Compound 7]", 0),
    ("CN1CC(c2nn(C)c(Cl)c2Br)C(C(=O)Nc2ccc(F)c(F)c2F)C1=O (racemic) [Compound 32]", 10),
]

// each listed compound needs a value for damage to plant (100=total damage; 0=no damage) IPOHE
1. CN1C[C@H](c2nn(C)c3c(Cl)cccc23)[C@@H](C(=O)Nc2cccc(F)c2F)C1=O [Compound 5]
2. CN1CC(c2nn(C)c(Cl)c2Br)C(C(=O)Nc2cccc(F)c2F)C1=O (racemic) [Compound 28]
3. CN1CC(c2nn(C)c(Cl)c2Br)C(C(=O)Nc2ccc(F)cc2F)C1=O (racemic) [Compound 30]
4. CN1CC(c2cc(C(F)(F)F)n(C)n2)C(C(=O)Nc2cccc(F)c2OC(F)(F)F)C1=O (racemic) [Compound 16]
5. CN1CC(c2cc(C(F)(F)F)n(C)n2)C(C(=O)Nc2ccc(F)nc2F)C1=O (racemic) [Compound 22]

1: 0; 2: 0; 3: 0; 4: 0; 5: 30

Using ivy-leaved morning glory (Ipomoea hederacea, IPOHE) as the test system, report measured damage to plant (100=total damage; 0=no damage) IPOHE of COc1c(F)cccc1NC(=O)C1C(=O)N(C)CC1c1cc(C(F)(F)F)n(C)n1 (racemic) [Compound 18] .
50

----------
- Test system: plants
- assay_details: Test D pre-emergence, other plants of Tables D1 and D3
- Format: in vivo
- test_parameters: pre-emergence, rate 500, 20 DAA, 100=total damage, 0=no damage
- Description: A formulation containing 50 g/L of the test chemical was prepared by dissolving the active ingredient in a mixture of organic solvents and emulsifier, details of which are provided in the table. This formulation was then mixed with a small, variable amount of acetone to aid dissolution, before addition of a 0.2% v/v aqueous solution of an adjuvant, as the aqueous diluent, to form an aqueous spray solution which contains a predetermined concentration of the active ingredient. […]
measured_metric: damage to plant, BROTE
One number for each entry.

# molecule, measured_metric, result_number
data = [
    ("CCn1nc([C@@H]2CN(C)C(=O)[C@H]2C(=O)Nc2cccc(F)c2F)c2cccc(F)c21 [Compound 14]", "damage to plant, BROTE", 50),
    ("CN1CC(c2cc(C(F)(F)F)n(C)n2)C(C(=O)Nc2cccc(F)c2F)C1=O (racemic) [Compound 3]", "damage to plant, BROTE", 0),
    ("CCn1nc([C@H]2CN(C)C(=O)[C@@H]2C(=O)Nc2cccc(F)c2F)c2ccc(F)cc21 [Compound 4]", "damage to plant, BROTE", 10),
]

State its damage to plant, BROTE: CN1CC(c2cc(Cl)n(C)n2)C(C(=O)Nc2ccc(F)c(F)c2F)C1=O (racemic) [Compound 31]
10

----------
Can you tell me damage to plant (100=total damage to plant; 0=no damage to plant), ABUTH for the items I'm about to list?
- Tested on: plants
- assay_details: Test D pre-emergence, other plants of Tables D1 and D3
- Format: in vivo
- test_parameters: ABUTH; preemergent; rate 250; 20 DAA
Give bare numbers.

# molecule, measured_on, result_number
rows = [
    ("CCn1nc([C@H]2CN(C)C(=O)[C@@H]2C(=O)Nc2cccc(F)c2F)c2ccc(F)cc21 [Compound 4]", "plants", 0),
]

Each of the following entries comes with a recorded value; kindly state damage to plant (100=total damage to plant; 0=no damage to plant), ABUTH for each.
1. CN1CC(c2cc(C(F)(F)F)n(C)n2)C(C(=O)Nc2ccc(F)c(F)c2F)C1=O (racemic) [Compound 17]
2. CCn1nc([C@@H]2CN(C)C(=O)[C@H]2C(=O)Nc2cccc(F)c2F)c2cccc(F)c21 [Compound 14]
3. CN1CC(c2cc(C(F)(F)F)n(C)n2)C(C(=O)Nc2ccc(F)nc2F)C1=O (racemic) [Compound 22]
4. COc1c(F)cccc1NC(=O)C1C(=O)N(C)CC1c1cc(C(F)(F)F)n(C)n1 (racemic) [Compound 18]

0
10
0
10
